All figures here come from PubChem BioAssay AID1259416.

Assay Text: T. gondii growth inhibition with IFN-gamma, primary screen, cell-based (AID 1259416);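 further: host cells are HeLa cells infected with Toxoplasma gondii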
Test Parameters: Toxoplasma gondii growth in IFN-gamma-treated host cells; stronger effect = lower value; concentration not given here
Screen size: about 69,000 compounds; about 2,600 (3.8%) were called active. The sample holds actives, similar compounds and a random draw of the others, so the mix is not that of the screen.
Endpoint Name: activity change, negative = inhibition (%)
Answers are plain numbers, in %.

// solved cases for activity change, negative = inhibition follow
>  <Molecule>
CCC(NC(=O)CCn1c(C)cc2ccccc21)c1cccnc1 (stereo not drawn)

>  <Unit>
%

>  <Observed Measurement>
0.306

$$$$
>  <Molecule>
CC1CCN(c2ncnc3c2cnn3CC(=O)Nc2cc(F)cc(F)c2)CC1

>  <Unit>
%

>  <Observed Measurement>
-68.2

$$$$

What measured activity change, negative = inhibition goes with "CN(C[C@@H]1[C@H](c2ccccc2)[C@@H](CO)N1Cc1ccccn1)S(C)(=O)=O" ?
2.44

----------
Assay Text: T. gondii growth inhibition with IFN-gamma, primary screen, cell-based (AID 1259416);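 further: host cells are HeLa cells infected with Toxoplasma gondii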
Test Parameters: Toxoplasma gondii growth in IFN-gamma-treated host cells; stronger effect = lower value; concentration not given here
Out of some 69,000 compounds screened, about 2,600 (3.8%) were called active. Shown is part of a subset that was picked to be rich in actives.
Answer each item with its documented activity change, negative = inhibition.
Give bare numbers, in %.

The following molecules have reported results that may help.
>  <Molecule>
C=CCN(Cc1ccc(C)s1)C(=O)c1ccc(-c2nnn(C)n2)cc1

>  <activity change, negative = inhibition, %>
-2.73

$$$$
>  <Molecule>
CC1(C)[C@]2(C(=O)NCCCc3nc4ccccc4o3)CC[C@@]1(C)OC2=O

>  <activity change, negative = inhibition, %>
4.16

$$$$
>  <Molecule>
CCCCCCCCCc1ccc(OCCOCCOCCOCCOCCOCCOCCOCCOCCO)cc1

>  <activity change, negative = inhibition, %>
-80.7

$$$$
>  <Molecule>
COCC(=O)N1CCC2(CC1)C(=O)N(c1cncnc1)c1ccccc12

>  <activity change, negative = inhibition, %>
-5.94

$$$$
>  <Molecule>
Cc1cccc2[nH]nc(-c3cc(NCCN(C)C)nc4[nH]ccc34)c12

>  <activity change, negative = inhibition, %>
-0.259

$$$$

Quick request: activity change, negative = inhibition for each listed item, please.
1. O=C1NCCc2[nH]c(-c3ccncc3)cc21
2. CN1CCC(NCCN(C)S(C)(=O)=O)CC1

1: -85.6; 2: 12.1

----------
Assay Text: T. gondii growth inhibition with IFN-gamma, primary screen, cell-based (AID 1259416);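 further: host cells are HeLa cells infected with Toxoplasma gondii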
Test Parameters: Toxoplasma gondii growth in IFN-gamma-treated host cells; stronger effect = lower value; concentration not given here
About 2,600 (3.8%) of roughly 69,000 compounds were called active. This is one part of a sample in which actives are shown more often than they occur.
Endpoint Name: activity change, negative = inhibition (%)
Numbers only, in %.

Solved cases (2 shown):
>  <Compound>
Cc1cccc(Cc2c(C)[nH]n(-c3nc4ccccc4[nH]3)c2=O)c1

>  <Endpoint Name>
activity change, negative = inhibition

>  <Unit>
%

>  <Observed Measurement>
-124

$$$$
>  <Compound>
O=C(CN1CCCC1=O)N1CCCC2(C=Cc3ccccc3O2)CC1 (stereo not given)

>  <Endpoint Name>
activity change, negative = inhibition

>  <Unit>
%

>  <Observed Measurement>
-13.8

$$$$

Respectfully, I request activity change, negative = inhibition for each entry included below.
1. Nc1cccc(CCc2nc3ccccc3[nH]2)c1
2. CC(C)c1cc(C(=O)NCCCc2nc3ccccc3n2C)n(C)n1
3. O=C1N[C@H](c2ccccc2)COCc2cn(nn2)CC[C@H]1Cc1cccc(Cl)c1

[22, -0.0637, -2.88]
